- System: Calu3 cells
- Condition Notes: same protocol without PP, ATP content
Measured Calu3 cytotoxicity Efficacy, listed per entry.
Your answer should be a plain number; it is taken to be in %.

Look over these answered cases.
{"Compound": "CN(C)C(=O)COC(=O)Cc1ccc(OC(=O)c2ccc(NC(=N)N)cc2)cc1", "Study System": "Calu3 cells", "Calu3 cytotoxicity Efficacy / %": 0}
{"Compound": "COC(=O)[C@H](Cc1cccc(C(=N)N)c1)[C@@H](C)NC(=O)c1ccc(-c2cc[n+]([O-])cc2)cc1", "Study System": "Calu3 cells", "Calu3 cytotoxicity Efficacy / %": 0}
{"Compound": "N=C(N)c1ccc2cc(OC(=O)c3ccc(N=C(N)N)cc3)ccc2c1", "Study System": "Calu3 cells", "Calu3 cytotoxicity Efficacy / %": 38.74}

# context switch: different compound, same Calu3 cytotoxicity Efficacy
Calu3 cytotoxicity Efficacy lookup needed for CCOC(=O)c1ccc(OC(=O)CCCCCNC(=N)N)cc1 [NCGC00025297, Gabexate] , thanks.
0
